// values below are reported IC50 (µM), VQIINK Inhibition (ThT)
- measured-on: T1, Ac-VQIINK-NH2
- T1 peptide: Ac-VQIINK-NH2
- test-method-notes: cell-based or functional assay
endpoint: IC50 (µM), VQIINK Inhibition (ThT)

- binder: "WRIRIAW"
  units: "µM"
  meas-value: 6
- binder: "FRIRIKHY"
  units: "µM"
  meas-value: 3.61
- binder: "WRITIRW"
  units: "µM"
  meas-value: 2.64
- binder: "IRLWIW"
  units: "µM"
  meas-value: 1.83
- binder: "IWIRYWWR"
  units: "µM"
  meas-value: 2.01
- binder: "WYRIWVRYW"
  units: "µM"
  meas-value: 2.22
- binder: "RIRIAIW"
  units: "µM"
  meas-value: 1.8
- binder: "WYRLRIRW"
  units: "µM"
  meas-value: 2.36
- binder: "RIRIWLW"
  units: "µM"
  meas-value: 1.93
- binder: "WRLRLRW"
  units: "µM"
  meas-value: 2.22
- binder: "RWRIWIW"
  units: "µM"
  meas-value: 3.44
- binder: "WRIHIRW"
  units: "µM"
  meas-value: 1.47
- binder: "WRIFIRW"
  units: "µM"
  meas-value: 9.13
- binder: "RIWIRIW"
  units: "µM"
  meas-value: 3.17
- binder: "RIHIFFW"
  units: "µM"
  meas-value: 1.95
- binder: "WIRYWWRI"
  units: "µM"
  meas-value: 2.8
- binder: "ERIWIRYW"
  units: "µM"
  meas-value: 6.19
